Values were extracted from patent US9957247B2.

Measured MIC by item
Tested on: S. aureus Mu50
Assay: Bacteriostatic effect, S. aureus Mu50
Settings: Staphylococcus aureus, MU50, read-out: Bacteriostatic effect MIC, S. aureus Mu50, Table 10 and Example 4
Give the value in µg/mL but do not write µg/mL after it.

# MOLECULE SMILES, STUDY SYSTEM, ENDPOINT UNIT, ENDPOINT RESULT
records = [
    ("CN(C)[C@@H]1C(O)=C(C(N)=O)C(=O)[C@@]2(O)C(O)=C3C(=O)c4c(O)cccc4[C@@](C)(O)[C@H]3C[C@@H]12", "S. aureus Mu50", "µg/mL", 62.5),
]

Let us move to another entry and its MIC.
For reference, reported MIC for CCn1cc(C(=O)O)c(=O)c2cc(F)c(N3CCNCC3)cc21 stands at 250

---

Tested on: S. aureus Mu50
Assay: Bacteriostatic effect, S. aureus Mu50
Settings: Staphylococcus aureus, MU50, read-out: Bacteriostatic effect MIC, S. aureus Mu50, Table 10 and Example 4
Measured MIC by item
Give the value in µg/mL but do not write µg/mL after it.

# COMPOUND, ENDPOINT UNIT, MIC
rows = [
    ("Oc1ccc2c(c1)Oc1cc(O)ccc1C2C1CCCC1 [SCA-41]", "µg/mL", 8.8),
]

For reference, reported MIC for NC[C@H]1O[C@H](O[C@H]2[C@H](O)[C@@H](O[C@H]3O[C@H](CO)[C@@H](O)[C@H](N)[C@H]3O)[C@H](N)C[C@@H]2N)[C@H](O)[C@@H](O)[C@@H]1O [Kanamycin] stands at 1000

For reference, reported MIC for CCCCCCC1c2ccc(O)cc2Oc2cc(O)ccc21 [SCA-50] stands at 4

For reference, reported MIC for CC1(C)S[C@@H]2[C@H](NC(=O)[C@H](N)c3ccccc3)C(=O)N2[C@H]1C(=O)O [Ampicillin] stands at 1000

---

Molecular target: BaSecA1 (Bacillus anthracis)
Sequence (Q81X26 whole entry, looked up): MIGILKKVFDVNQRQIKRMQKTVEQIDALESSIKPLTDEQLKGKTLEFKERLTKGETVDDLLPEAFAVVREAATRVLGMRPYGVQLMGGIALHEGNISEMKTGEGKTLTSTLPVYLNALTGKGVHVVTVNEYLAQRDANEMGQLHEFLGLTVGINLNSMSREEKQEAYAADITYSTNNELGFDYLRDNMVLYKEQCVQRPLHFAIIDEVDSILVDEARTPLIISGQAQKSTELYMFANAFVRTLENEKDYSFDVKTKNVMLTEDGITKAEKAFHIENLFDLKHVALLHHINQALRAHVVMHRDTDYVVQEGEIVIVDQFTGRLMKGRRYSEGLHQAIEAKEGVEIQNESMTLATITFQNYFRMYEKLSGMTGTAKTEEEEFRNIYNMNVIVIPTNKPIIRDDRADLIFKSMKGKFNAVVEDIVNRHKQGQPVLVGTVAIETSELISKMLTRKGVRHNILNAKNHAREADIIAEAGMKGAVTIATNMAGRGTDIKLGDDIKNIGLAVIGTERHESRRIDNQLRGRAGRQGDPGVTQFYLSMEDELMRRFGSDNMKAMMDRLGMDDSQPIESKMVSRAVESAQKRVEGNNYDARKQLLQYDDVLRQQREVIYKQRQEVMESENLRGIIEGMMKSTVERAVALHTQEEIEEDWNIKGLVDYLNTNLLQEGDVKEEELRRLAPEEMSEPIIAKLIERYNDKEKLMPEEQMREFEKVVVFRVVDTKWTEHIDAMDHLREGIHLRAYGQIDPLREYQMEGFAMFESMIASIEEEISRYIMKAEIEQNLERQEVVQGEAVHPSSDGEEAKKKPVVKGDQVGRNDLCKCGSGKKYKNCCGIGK
Assay: cell-based
Conditions: IC50, Ion Channel activity, BGaSecA 1
Measured IC50 by item
Give the value in nM but do not write nM after it.

# MOLECULE SMILES, MEASURED ATTRIBUTE, ENDPOINT RESULT
measured = [
    ("CSc1nc(Sc2nnc(-c3cc(C(F)(F)F)cc(C(F)(F)F)c3)[nH]2)cc(Sc2nnc(-c3cc(C(F)(F)F)cc(C(F)(F)F)c3)[nH]2)n1", "IC50", 1500),
    ("CCCCCCC1c2ccc(O)cc2Oc2cc(O)ccc21", "IC50", 1000),
]

Let us move to another entry and its IC50.
For reference, reported IC50 for Oc1ccc2c(c1)Oc1cc(O)ccc1C2C1CCCC1 stands at 3800
